SYSTEM UNDER TEST: T1, Recombinant human EGFR protein (Active) (ab155639) (human, UniProt P00533 25-645, labelled with RED-tris-NTA 2nd Generation dye)
T1 construct: epidermal growth factor receptor (EGFR, ErbB-1), human, recombinant; also called EGF receptor; ErbB-1; source: bought: Abcam (ab155639), recombinant
MEASUREMENT DESCRIPTION: MST; RED-tris-NTA-labelled EGFR 25 nM, ligand in a dilution series in PBS-T; assay concentration of the ligand not stated for the values printed in running text
MEASUREMENT SETUP: both partners purified
pKd: −log10 of the molar value.
REPORTED METRIC: pKd

Return value of pKd for input IGERCQ (EGF, human, residues 38-43; numbers count on: the mature protein; source: synthetic peptide (SPPS, Fmoc; crude, without preparative HPLC)) [EGF fragment 38–43 (IGERCQ)] , no commentary.
5.74 to 7.00
